system: Ctenocephalides felis; assay: Ctenocephalides felis adulticide assay: C. felis dose response (LC50); details: data from laboratory 1
For each record, check the reported C. felis LC50: if it is below 0.9 ppm write fulfilled, else write not fulfilled.

Is it true that C. felis LC50 reported for `CC(=NN(C)c1ccccc1F)c1cc(Cl)ccc1NS(=O)(=O)C(F)(F)F` is less than 0.9 ppm? fulfilled

Is it true that C. felis LC50 reported for `CCN(N=C(C)c1cc(Cl)ccc1NS(=O)(=O)C(F)(F)F)c1ccccc1` is less than 0.9 ppm? not fulfilled

Is it true that C. felis LC50 reported for `CC(=NN1CC(=O)NC1=O)c1cc(Cl)ccc1NS(=O)(=O)C(F)(F)F` is less than 0.9 ppm? not fulfilled

Next:
Is it true that C. felis LC50 reported for `CC(=NN(C)c1ccccc1)c1cc(Cl)ccc1NS(=O)(=O)C(F)(F)F` is less than 0.9 ppm? fulfilled

Is it true that C. felis LC50 reported for `CCOC(=O)N(C)N=C(C)c1cc(Cl)ccc1NS(=O)(=O)C(F)(F)F` is less than 0.9 ppm? not fulfilled

###

test system: Ctenocephalides felis; conditions: 24 h; data from laboratory 1
Decide using C. felis Mortality (%) 24 h: a value greater than or equal to 60% is Met, a smaller one is Not met.

C. felis Mortality (%) 24 h >= 60% for `CC(=NNC(=O)c1ccc(Cl)cc1Cl)c1cc(Cl)ccc1NS(=O)(=O)C(F)(F)F` ? Not met

Next:
C. felis Mortality (%) 24 h >= 60% for `CCC(=NNC(=O)c1ccccc1Cl)c1cc(Cl)ccc1NS(=O)(=O)C(F)(F)F` ? Met

C. felis Mortality (%) 24 h >= 60% for `CC(=NNC(=O)Nc1ccc(Cl)cc1)c1cc(Cl)ccc1NS(=O)(=O)C(F)(F)F` ? Not met

C. felis Mortality (%) 24 h >= 60% for `CC(=NN(c1ccc(Cl)cc1Cl)C(C)C)c1cc(Cl)ccc1NS(=O)(=O)C(F)(F)F` ? Not met

C. felis Mortality (%) 24 h >= 60% for `CCCN(N=C(C)c1cc(Cl)ccc1NS(=O)(=O)C(F)(F)F)c1ccccc1Cl` ? Met

C. felis Mortality (%) 24 h >= 60% for `CCC(=NN1CCCC1)c1cc(Cl)ccc1NS(=O)(=O)C(F)(F)F` ? Not met

C. felis Mortality (%) 24 h >= 60% for `CCN(N=C(C)c1ccccc1NS(=O)(=O)C(F)(F)F)c1ccc(Cl)cc1` ? Not met

###

tested on: Ctenocephalides felis
For each record, check the reported C. felis Mortality (%) 8 h: if it is below 60% write criterion met, else write criterion not met.

The following compounds have reported results that may help.
Is it true that C. felis Mortality (%) 8 h reported for CC(=NN(C)c1ccccc1F)c1cc(Cl)ccc1NS(=O)(=O)C(F)(F)F [Compound 49] is less than 60%? criterion not met

Is it true that C. felis Mortality (%) 8 h reported for C/C(=N\N(CCC#N)C(=O)C(C)C)c1cc(Cl)ccc1NS(=O)(=O)C(F)(F)F [Compound 223] is less than 60%? criterion met

Is it true that C. felis Mortality (%) 8 h reported for CC(=NN(C)c1ccc(C(F)(F)F)cc1)c1cc(Cl)ccc1NS(=O)(=O)C(F)(F)F [Compound 65] is less than 60%? criterion not met

Is it true that C. felis Mortality (%) 8 h reported for CC(=NN(c1cccc(F)c1)C(C)C)c1cc(Cl)ccc1NS(=O)(=O)C(F)(F)F [Compound 77] is less than 60%? criterion not met

Is it true that C. felis Mortality (%) 8 h reported for CCOC(=O)N(CCC(C)C)N=C(C)c1cc(Cl)ccc1NS(=O)(=O)C(F)(F)F [Compound 158] is less than 60%? criterion met

Is it true that C. felis Mortality (%) 8 h reported for CC(=NN(C)c1ccc(Cl)cc1)c1cc(Cl)ccc1NS(=O)(=O)C(F)(F)F [Compound 105] is less than 60%? criterion met

Field: next compound
Is it true that C. felis Mortality (%) 8 h reported for CCN(N=C(C)c1cc(Cl)ccc1NS(=O)(=O)C(F)(F)F)c1ccc(Br)cc1 [Compound 54] is less than 60%? criterion not met
